Test: Cytotoxicity against african green monkey Vero 76 cells after 48 to 96 hrs by MTT assay
Type: cell-based
Settings: chlorocebus sabaeus
Exercise: for every item that follows, state its recorded CC50.

Sample answers from the record:
[[record]]
compound_string = "C/C(=N\\NC(N)=O)c1ccc2[nH]c(-c3ccc(C(F)(F)F)cc3)nc2c1"
result = "> 100 µM"

[[record]]
compound_string = "COc1ccc(-c2nc3cc(C(C)=O)ccc3[nH]2)c(OC)c1"
result = "> 100 µM"


Identify measured CC50 associated with "CC(=O)c1ccc2c(c1)nc(-c1ccccn1)n2C1CCCCC1"
> 90 µM

* * *

System: Vaccinia virus
Test: Antiviral activity against Vaccinia virus Elstree-Lister ATCC VR-1549 infected in african green monkey Vero-76 cells assessed as reduction in viral plaque after 3 days by crystal violet staining
Assay type: functional, organism-based
Details: Orthopoxvirus vaccinia, Elstree-Lister ATCC VR-1549, Vero 76, 72 h
Consider the following molecules; for each one, report its EC50.

In the examples that follow, each entry is paired with its recorded EC50.
[[record]]
molecule = "C/C(=N\\NC(N)=O)c1ccc2[nH]c(-c3ccc(C(F)(F)F)cc3)nc2c1"
result = "> 100 µM"

[[record]]
molecule = "CC(=O)c1ccc2c(c1)nc(-c1ccccn1)n2C1CCCCC1"
result = "> 90 µM"

[[record]]
molecule = "COc1ccc(-c2nc3cc(/C(C)=N/NC(N)=O)ccc3[nH]2)c(OC)c1"
result = "80 µM"


For the 2 molecules below, give their EC50 values.
1. C/C(=N\NC(N)=O)c1ccc2c(c1)nc(-c1ccc(Cl)cc1)n2C1CCCCC1
2. C/C(=N\NC(N)=S)c1ccc2c(c1)nc(-c1ccoc1)n2C1CCCCC1

1: > 100 µM; 2: > 25 µM

* * *

Assay: Cytotoxicity against BHK21 cells by MTT assay
Type: cell-based, Mesocricetus auratus
Conditions: hamster, BHK-21 cells
Quantity Name: CC50 (µM)
Numbers only, in µM.

[[record]]
compound_string = "CC(=O)c1ccc2[nH]c(-c3ccoc3)nc2c1"
numeric_readout = 98


Now consider a different compound.
Provide only the value of recorded CC50 for "C/C(=N\NC(N)=S)c1ccc2[nH]c(C3CCCCC3)nc2c1"
24

* * *

Assignment: determine reported CC50 for the given compounds.
Experiment: Cytotoxicity against MDBK cells after 48 to 96 hrs by MTT assay
Format: cell-based, Bos taurus
Conditions: cattle

[[record]]
compound = "COc1ccc(-c2nc3cc(/C(C)=N/NC(N)=O)ccc3n2C2CCCCC2)c(OC)c1"
result = "36 µM"

[[record]]
compound = "C/C(=N\\NC(N)=O)c1ccc2c(c1)nc(-c1ccc(Cl)cc1)n2C1CCCCC1"
result = "> 100 µM"


Hi there! I need CC50 for each item below, if you can.
1. COc1ccc(-c2nc3cc(/C(C)=N/NC(N)=O)ccc3[nH]2)cc1
2. C/C(=N\NC(N)=S)c1ccc2c(c1)nc(-c1ccc(C(F)(F)F)cc1)n2C1CCCCC1
3. COc1ccc(-c2nc3cc(C(C)O)ccc3[nH]2)c(OC)c1 (stereo not given)
4. CC(=O)c1ccc2[nH]c(-c3ccc(Cl)cc3)nc2c1
5. COc1ccc(-c2nc3cc(C(C)=O)ccc3n2C2CCCCC2)cc1
6. C/C(=N\NC(N)=S)c1ccc2[nH]c(-c3ccc(Cl)cc3)nc2c1
7. C/C(=N\NC(N)=S)c1ccc2[nH]c(-c3ccccc3)nc2c1

1. 25 µM
2. > 100 µM
3. > 100 µM
4. > 100 µM
5. > 100 µM
6. > 100 µM
7. 32 µM

* * *

Test system: Coxsackievirus B5
Experiment: Antiviral activity against Coxsackie virus type B5 Ohio-1 ATCC VR-29 infected in african green monkey Vero-76 cells assessed as reduction in viral plaque after 3 days by crystal violet staining
Format: functional, organism-based
Details: Enterovirus B, Ohio-1 ATCC VR-29, Vero 76, 72 h
pEC50: −log10 of the molar value.
Please provide measured pEC50 for the entries that follow.

Below are worked cases with known answers.
[[record]]
molecule = "C/C(=N\\NC(N)=S)c1ccc2c(c1)nc(-c1ccoc1)n2C1CCCCC1"
result = "< 4.60"

[[record]]
molecule = "COc1ccc(-c2nc3cc(C(C)O)ccc3[nH]2)c(OC)c1OC (stereo unspecified)"
result = "< 4.00"

[[record]]
molecule = "C/C(=N\\NC(N)=O)c1ccc2c(c1)nc(-c1ccccc1)n2C1CCCCC1"
result = "< 4.00"

[[record]]
molecule = "COc1ccc(-c2nc3cc(/C(C)=N/O)ccc3[nH]2)c(OC)c1"
result = 4.37

[[record]]
molecule = "C/C(=N\\NC(N)=S)c1ccc2[nH]c(-c3ccoc3)nc2c1"
result = "< 4.00"


Hi there! I need pEC50 for each item below, if you can.
1. CC(=O)c1ccc2[nH]c(-c3ccc(Cl)cc3)nc2c1
2. COc1ccc(-c2nc3cc(C(C)O)ccc3[nH]2)c(OC)c1 (stereo unspecified)
3. COc1ccc(-c2nc3cc(/C(C)=N/NC(N)=O)ccc3n2C2CCCCC2)c(OC)c1
4. COc1ccc(-c2nc3cc(C(C)=O)ccc3[nH]2)cc1
5. COc1ccc(-c2nc3cc(C(C)=O)ccc3n2C2CCCCC2)cc1
6. C/C(=N\NC(N)=S)c1ccc2[nH]c(-c3ccc(C(F)(F)F)cc3)nc2c1
7. COc1ccc(-c2nc3cc(/C(C)=N/NC(N)=S)ccc3[nH]2)c(OC)c1
8. C/C(=N\NC(N)=O)c1ccc2c(c1)nc(-c1ccc(Cl)cc1)n2C1CCCCC1

< 4.00
< 4.00
< 4.70
< 4.00
< 4.52
< 4.66
< 4.00
< 4.00

Below is a list of molecules. For each, state its recorded pEC50.
1. C/C(=N\NC(N)=O)c1ccc2[nH]c(C3CCCCC3)nc2c1
2. C/C(=N\NC(N)=O)c1ccc2[nH]c(-c3ccccc3)nc2c1
3. COc1ccc(-c2nc3cc(/C(C)=N/O)ccc3[nH]2)cc1

1. < 4.00
2. < 4.00
3. < 4.00

* * *

Kindly supply the reported CC50 values for the records listed here.
Assay: Cytotoxicity against MDBK cells after 48 to 96 hrs by MTT assay
Assay type: cell-based, Bos taurus
Settings: cattle

Example entries begin here.
[[record]]
compound_string = "CC(=O)c1ccc2c(c1)nc(-c1ccccc1)n2C1CCCCC1"
quantity_name = "CC50"
result = "> 100 µM"

[[record]]
compound_string = "C/C(=N\\NC(N)=O)c1ccc2[nH]c(-c3ccc(C(F)(F)F)cc3)nc2c1"
quantity_name = "CC50"
result = "> 100 µM"


Let me know recorded CC50 for "C/C(=N\NC(N)=O)c1ccc2[nH]c(C3CCCCC3)nc2c1" , thanks.
> 100 µM

* * *

System: Coxsackievirus B5
Test: Antiviral activity against Coxsackie virus type B5 Ohio-1 ATCC VR-29 infected in african green monkey Vero-76 cells assessed as reduction in viral plaque after 3 days by crystal violet staining
Format: functional, organism-based
Settings: Enterovirus B, Ohio-1 ATCC VR-29, Vero 76, 72 h
Would you mind telling me the reported EC50 of each entry?

// solved cases for EC50 follow
[[record]]
compound_string = "CC(=O)c1ccc2c(c1)nc(-c1ccccn1)n2C1CCCCC1"
result = "> 90 µM"

[[record]]
compound_string = "C/C(=N\\NC(N)=O)c1ccc2[nH]c(-c3ccoc3)nc2c1"
result = "> 100 µM"

[[record]]
compound_string = "C/C(=N\\NC(N)=S)c1ccc2c(c1)nc(-c1ccccc1)n2C1CCCCC1"
result = "> 20 µM"

[[record]]
compound_string = "C/C(=N\\NC(N)=O)c1ccc2[nH]c(-c3ccc(C(F)(F)F)cc3)nc2c1"
result = "> 100 µM"


Kindly consider the entry below.
Look up EC50 of "CC(=O)c1ccc2c(c1)nc(-c1ccoc1)n2C1CCCCC1" and report it.
> 80 µM

* * *

Could you please report measured CC50 for the items listed next?
Experiment: Cytotoxicity against african green monkey Vero 76 cells after 48 to 96 hrs by MTT assay
Assay type: cell-based
Settings: chlorocebus sabaeus

Recorded results for 5 molecules are shown here.
[[record]]
molecule = "C/C(=N\\NC(N)=O)c1ccc2c(c1)nc(-c1ccccc1)n2C1CCCCC1"
result = "> 100 µM"

[[record]]
molecule = "COc1ccc(-c2nc3cc(C(C)=O)ccc3n2C2CCCCC2)cc1"
result = "30 µM"

[[record]]
molecule = "COc1ccc(-c2nc3cc(/C(C)=N/NC(N)=O)ccc3[nH]2)c(OC)c1"
result = "80 µM"

[[record]]
molecule = "COc1ccc(-c2nc3cc(/C(C)=N/O)ccc3[nH]2)c(OC)c1OC"
result = "> 100 µM"

[[record]]
molecule = "C/C(=N\\NC(N)=S)c1ccc2c(c1)nc(-c1ccoc1)n2C1CCCCC1"
result = "25 µM"


The following molecules each have a reported value; give each one's CC50.
1. C/C(=N\NC(N)=S)c1ccc2[nH]c(-c3ccoc3)nc2c1
2. C/C(=N\NC(N)=O)c1ccc2[nH]c(-c3ccoc3)nc2c1
3. CC(=O)c1ccc2c(c1)nc(-c1ccc(Cl)cc1)n2C1CCCCC1
4. CC(=O)c1ccc2[nH]c(-c3ccc(C(F)(F)F)cc3)nc2c1
5. C/C(=N\NC(N)=S)c1ccc2c(c1)nc(-c1ccccc1)n2C1CCCCC1
6. C/C(=N\NC(N)=S)c1ccc2[nH]c(-c3ccccc3)nc2c1

100 µM
> 100 µM
> 100 µM
> 100 µM
20 µM
> 100 µM

Dear colleague, could you send me CC50 for each of the items below? Thanks.
1. C/C(=N\NC(N)=S)c1ccc2[nH]c(-c3ccc(C(F)(F)F)cc3)nc2c1
2. CC(=O)c1ccc2c(c1)nc(-c1ccc(C(F)(F)F)cc1)n2C1CCCCC1
3. C/C(=N\NC(N)=S)c1ccc2[nH]c(C3CCCCC3)nc2c1
4. COc1ccc(-c2nc3cc(C(C)O)ccc3[nH]2)cc1 (stereo unspecified)
5. C/C(=N\NC(N)=S)c1ccc2c(c1)nc(-c1ccccn1)n2C1CCCCC1

["22 µM", "35 µM", "> 100 µM", "> 100 µM", "20 µM"]
